# TARGET_ENTITY: Human GO (Homo sapiens, UniProt Q9UJM8)
# Construct: purchased Novus Biologicals NBP1-72412
# Sequence (Q9UJM8 1-370): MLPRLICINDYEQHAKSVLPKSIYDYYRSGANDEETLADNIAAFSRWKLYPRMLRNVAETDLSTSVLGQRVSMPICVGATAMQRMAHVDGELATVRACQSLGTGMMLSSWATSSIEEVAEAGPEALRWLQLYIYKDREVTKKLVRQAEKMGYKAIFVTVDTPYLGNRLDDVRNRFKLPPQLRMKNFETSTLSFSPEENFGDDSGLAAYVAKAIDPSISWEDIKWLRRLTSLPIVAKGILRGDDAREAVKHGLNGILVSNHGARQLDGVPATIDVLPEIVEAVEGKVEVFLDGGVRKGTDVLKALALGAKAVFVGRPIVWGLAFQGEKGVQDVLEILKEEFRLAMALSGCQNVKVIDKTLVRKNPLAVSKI
# ASSAY_DETAILS: GO enzymatic assay (coupled fluorescence/HRP assay, glycolate substrate)
# Type: biochemical
# PROTOCOL_CONDITIONS: Table 6; GO enzymatic assay; read-out: Range (range of IC50 values calculated from the enzymatic assays)
pIC50: −log10 of the molar value.
QUANTITY_KIND: pIC50

MOLECULE: O=C(O)c1[nH]nnc1O[C@@H]1CCc2cc(Cl)c(Cl)cc2C1 [Compound 111-1]
pIC50: > 7.00

Next item in the queue.
Query O=C(O)c1[nH]nnc1O[C@H]1CCc2cc(Cl)c(Cl)cc2C1 [Compound 111-2] yields pIC50 of > 7.00
